# SYSTEM UNDER TEST: Wee1-like protein kinase (Homo sapiens) (UniProt P30291)
# Sequence (P30291 whole entry K328M): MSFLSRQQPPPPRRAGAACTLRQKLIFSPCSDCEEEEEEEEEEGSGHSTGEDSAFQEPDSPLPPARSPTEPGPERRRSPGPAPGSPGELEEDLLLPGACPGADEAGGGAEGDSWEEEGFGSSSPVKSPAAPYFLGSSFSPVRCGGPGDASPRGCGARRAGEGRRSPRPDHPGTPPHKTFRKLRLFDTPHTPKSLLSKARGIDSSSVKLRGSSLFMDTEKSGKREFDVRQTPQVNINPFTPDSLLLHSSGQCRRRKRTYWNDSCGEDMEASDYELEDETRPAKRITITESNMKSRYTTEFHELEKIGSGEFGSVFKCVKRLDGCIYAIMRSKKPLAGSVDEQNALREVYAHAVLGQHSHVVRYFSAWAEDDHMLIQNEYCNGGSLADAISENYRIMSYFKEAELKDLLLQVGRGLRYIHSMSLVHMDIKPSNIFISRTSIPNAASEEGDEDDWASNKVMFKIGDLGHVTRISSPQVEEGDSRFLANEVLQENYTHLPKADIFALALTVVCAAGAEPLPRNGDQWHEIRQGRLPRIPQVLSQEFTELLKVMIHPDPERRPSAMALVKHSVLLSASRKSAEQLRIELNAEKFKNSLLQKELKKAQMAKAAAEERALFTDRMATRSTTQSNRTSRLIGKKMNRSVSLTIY
# PROTOCOL NOTES: WEE1 degradation inhibition, concentration series – cell-based, HeLa, WEE1K328M-luciferase, luminescence, assay provider, late-stage follow-up (AID 463080)
# RECORDED CONDITIONS: HeLa WEE1K328M-luciferase stabilization
pEC50: −log10 of the molar value.
Each entry below carries its recorded pEC50.
PARAMETER MEASURED: pEC50

• CC(C)n1cnc2c(NCc3nc4c([N+](=O)[O-])cccc4[nH]3)nc(N3CCOCC3)nc21 = 6.70
• O=[N+]([O-])c1cccc2[nH]c(CNc3nc(N4CCOCC4)nc4c3ncn4-c3ccsc3)nc12 = 7.40
• CCOC(=O)c1cccc2[nH]c(CNc3nc(N4CCOCC4)nc4c3ncn4-c3ccsc3)nc12 = 6.68
• Clc1ccc2nc(CNc3nc(N4CCOCC4)nc4c3ncn4-c3ccsc3)[nH]c2c1 = 6.79
• c1ccc2[nH]c(CNc3nc(N4CCOCC4)nc4c3ncn4-c3ccsc3)nc2c1 = 6.20
